Can you tell me inhibition at 10 µM for the items I'm about to list?
Molecular target: human P2X7 receptor (Homo sapiens, UniProt Q99572)
Construct: host or cells: HEK-293
Sequence (Q99572 1-595): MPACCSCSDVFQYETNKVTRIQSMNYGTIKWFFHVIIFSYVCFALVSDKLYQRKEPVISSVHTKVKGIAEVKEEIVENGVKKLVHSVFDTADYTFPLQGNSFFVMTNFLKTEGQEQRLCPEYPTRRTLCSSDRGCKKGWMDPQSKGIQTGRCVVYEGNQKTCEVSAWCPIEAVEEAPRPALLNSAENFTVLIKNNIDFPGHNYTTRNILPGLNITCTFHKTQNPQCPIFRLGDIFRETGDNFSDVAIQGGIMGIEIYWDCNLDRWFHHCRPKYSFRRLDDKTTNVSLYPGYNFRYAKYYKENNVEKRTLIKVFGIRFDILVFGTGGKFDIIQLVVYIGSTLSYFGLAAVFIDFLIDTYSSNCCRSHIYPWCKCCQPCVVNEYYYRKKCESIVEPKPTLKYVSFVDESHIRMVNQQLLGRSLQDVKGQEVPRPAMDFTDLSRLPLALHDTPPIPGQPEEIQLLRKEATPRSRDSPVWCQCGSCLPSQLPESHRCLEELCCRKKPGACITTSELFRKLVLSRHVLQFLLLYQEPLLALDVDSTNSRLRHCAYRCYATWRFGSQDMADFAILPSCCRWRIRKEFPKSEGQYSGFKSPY
Experiment: YO‐PRO‐1 dye uptake assay for the P2X7 receptor
Format: cell-based
Settings: P2X7; read-out: % Inhibition of P2X7R at 10 µM compounds’ concentration
One number for each entry, in %.

[[record]]
compound_structure_string = "COc1ccc2c(C(=O)c3cc(OC)c(OC)c(OC)c3)c(C(F)(F)F)cn2c1"
observed_measurement = 8

[[record]]
compound_structure_string = "COc1ccc(C(=O)c2ccn3ccccc23)cc1"
observed_measurement = 5

[[record]]
compound_structure_string = "O=C(c1ccc(Cl)cc1)c1ccn2ccccc12"
observed_measurement = 10


Each of the following entries comes with a recorded value; kindly state inhibition at 10 µM for each.
1. COc1ccc2c(C(=O)c3ccc(Cl)c(Cl)c3)ccn2c1
2. COc1ccc2c(C(=O)c3ccc(Cl)cc3)ccn2c1
3. COc1ccc2c(C(=O)c3cc(OC)c(OC)c(OC)c3)c(-c3ccc(C)cc3)cn2c1
4. COc1ccc2c(C(=O)c3ccccc3)ccn2c1
5. COc1ccc2c(C(=O)c3cc(OC)c(OC)c(OC)c3)c(C)cn2c1
6. COc1ccc2c(C(=O)c3ccc(C)cc3)ccn2c1
7. O=C(c1ccc(Cl)c(Cl)c1)c1ccn2ccccc12
8. COc1ccc2c(C(=O)c3cc(OC)c(OC)c(OC)c3)c(-c3ccccc3)cn2c1

1: 4; 2: 4; 3: -2; 4: -6; 5: 9; 6: -9; 7: 7; 8: 5

Each of the following entries comes with a recorded value; kindly state inhibition at 10 µM for each.
1. CCCCCc1cn2cc(OC)ccc2c1C(=O)c1cc(OC)c(OC)c(OC)c1
2. COc1ccc(CC(=O)c2cc(OC)c(OC)c(OC)c2)nc1

6
5

---

target: human P2X4 receptor (Homo sapiens, UniProt Q99571); construct: expressed in transfected cells; host or cells: human 1321N1 astrocytoma cells; experiment: Ca2+‐flux assay for the hP2X4 receptor; assay type: cell-based; details: read-out: % Inhibition of P2X4R at 10 µM compounds’ concentration
Sequence (Q99571 whole entry): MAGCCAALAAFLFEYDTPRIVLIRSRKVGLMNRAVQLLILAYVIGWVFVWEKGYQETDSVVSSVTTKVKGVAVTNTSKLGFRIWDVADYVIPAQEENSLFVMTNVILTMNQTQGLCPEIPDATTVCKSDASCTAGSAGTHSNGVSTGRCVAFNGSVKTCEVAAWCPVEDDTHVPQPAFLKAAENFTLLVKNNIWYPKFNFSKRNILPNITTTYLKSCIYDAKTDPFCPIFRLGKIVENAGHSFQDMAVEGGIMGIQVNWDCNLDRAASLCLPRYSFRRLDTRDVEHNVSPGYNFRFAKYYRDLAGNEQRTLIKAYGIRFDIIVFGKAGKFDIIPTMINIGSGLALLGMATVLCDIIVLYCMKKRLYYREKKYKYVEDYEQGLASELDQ
Can you tell me inhibition at 10 µM for the items I'm about to list?
Answers are plain numbers, in %.

Solved entries:
[[record]]
compound = "COc1ccc2c(C(=O)c3ccc(C)cc3)ccn2c1 [Compound 7c]"
observed_measurement = -2

[[record]]
compound = "COc1ccc2c(C(=O)c3cc(OC)c(OC)c(OC)c3)c(C)cn2c1 [Compound 8a]"
observed_measurement = 5

[[record]]
compound = "COc1ccc2c(C(=O)c3cc(OC)c(OC)c(OC)c3)c(C(C)(C)C)cn2c1 [Compound 8b]"
observed_measurement = -6

[[record]]
compound = "COc1ccc(C(=O)c2ccn3cc(OC)ccc23)cc1 [Compound 7d]"
observed_measurement = 8

[[record]]
compound = "COc1ccc2c(C(=O)c3cc(OC)c(OC)c(OC)c3)c(-c3ccc(C)cc3)cn2c1 [Compound 8j]"
observed_measurement = 0


Each of the following entries comes with a recorded value; kindly state inhibition at 10 µM for each.
1. CCCCCc1cn2cc(OC)ccc2c1C(=O)c1cc(OC)c(OC)c(OC)c1 [Compound 8i]
2. O=C(c1ccc(Cl)cc1)c1ccn2ccccc12 [Compound 6b]
3. COc1ccc(C(=O)c2ccn3ccccc23)cc1 [Compound 6d]

1: -1; 2: -3; 3: 0
